The reported measurements were obtained from patent US20200048328A1.

Measured koff of individual entries
biological target: T1, rhesus serum albumin (rhesus, UniProt Q28522 17-600); experiment: SPR, albumin immobilized, Adnectin 250 nM
T1 construct: also called RhSA; Rh-SA
T1 sequence (Q28522 17-600 limits assumed): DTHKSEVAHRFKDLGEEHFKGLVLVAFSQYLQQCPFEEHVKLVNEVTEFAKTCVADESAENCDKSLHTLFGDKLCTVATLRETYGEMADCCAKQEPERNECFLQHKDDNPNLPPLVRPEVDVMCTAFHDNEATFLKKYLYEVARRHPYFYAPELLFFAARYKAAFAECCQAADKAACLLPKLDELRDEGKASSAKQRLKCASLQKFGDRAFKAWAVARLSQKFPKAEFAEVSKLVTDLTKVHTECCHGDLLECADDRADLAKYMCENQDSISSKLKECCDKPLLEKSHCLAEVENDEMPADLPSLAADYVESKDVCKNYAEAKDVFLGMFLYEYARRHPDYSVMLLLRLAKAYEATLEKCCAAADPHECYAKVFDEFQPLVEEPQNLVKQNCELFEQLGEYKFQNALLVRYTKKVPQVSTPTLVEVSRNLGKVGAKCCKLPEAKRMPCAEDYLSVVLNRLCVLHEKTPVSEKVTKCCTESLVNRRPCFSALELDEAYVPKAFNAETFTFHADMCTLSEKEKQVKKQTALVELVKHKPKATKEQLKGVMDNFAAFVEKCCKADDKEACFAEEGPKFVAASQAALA
I only need the number, in s⁻¹, no unit after it.

[[record]]
binder = "5963_E01.PS5-2 (designed binder) MGVSDVPRDLEVVAATPTSLLISWDAPAVTVRYYRITYGREVQKYSDLGPLYIYQEFTVPGSKSTACISGLKPGVDYTITVYAVTGSGESPASSKPISINYRTPHHHHHH"
readout_value = 0.000313


Continue with the next binder.
Would you mind telling me what koff value was observed for 5963_F03.PS5-2 (designed binder) MGVSDVPRDLEVVAATPTSLLISWDAPCVTVRYYRITYGREVQKYSDLGPLYIYQEFTVPGSKSTATISGLKPGVDYTITVYAVTGSGESPASSKPISINYRTPHHHHHH ?
0.000312
